# target under test: human telomerase (Homo sapiens, UniProt O14746)
# Sequence (O14746 whole entry): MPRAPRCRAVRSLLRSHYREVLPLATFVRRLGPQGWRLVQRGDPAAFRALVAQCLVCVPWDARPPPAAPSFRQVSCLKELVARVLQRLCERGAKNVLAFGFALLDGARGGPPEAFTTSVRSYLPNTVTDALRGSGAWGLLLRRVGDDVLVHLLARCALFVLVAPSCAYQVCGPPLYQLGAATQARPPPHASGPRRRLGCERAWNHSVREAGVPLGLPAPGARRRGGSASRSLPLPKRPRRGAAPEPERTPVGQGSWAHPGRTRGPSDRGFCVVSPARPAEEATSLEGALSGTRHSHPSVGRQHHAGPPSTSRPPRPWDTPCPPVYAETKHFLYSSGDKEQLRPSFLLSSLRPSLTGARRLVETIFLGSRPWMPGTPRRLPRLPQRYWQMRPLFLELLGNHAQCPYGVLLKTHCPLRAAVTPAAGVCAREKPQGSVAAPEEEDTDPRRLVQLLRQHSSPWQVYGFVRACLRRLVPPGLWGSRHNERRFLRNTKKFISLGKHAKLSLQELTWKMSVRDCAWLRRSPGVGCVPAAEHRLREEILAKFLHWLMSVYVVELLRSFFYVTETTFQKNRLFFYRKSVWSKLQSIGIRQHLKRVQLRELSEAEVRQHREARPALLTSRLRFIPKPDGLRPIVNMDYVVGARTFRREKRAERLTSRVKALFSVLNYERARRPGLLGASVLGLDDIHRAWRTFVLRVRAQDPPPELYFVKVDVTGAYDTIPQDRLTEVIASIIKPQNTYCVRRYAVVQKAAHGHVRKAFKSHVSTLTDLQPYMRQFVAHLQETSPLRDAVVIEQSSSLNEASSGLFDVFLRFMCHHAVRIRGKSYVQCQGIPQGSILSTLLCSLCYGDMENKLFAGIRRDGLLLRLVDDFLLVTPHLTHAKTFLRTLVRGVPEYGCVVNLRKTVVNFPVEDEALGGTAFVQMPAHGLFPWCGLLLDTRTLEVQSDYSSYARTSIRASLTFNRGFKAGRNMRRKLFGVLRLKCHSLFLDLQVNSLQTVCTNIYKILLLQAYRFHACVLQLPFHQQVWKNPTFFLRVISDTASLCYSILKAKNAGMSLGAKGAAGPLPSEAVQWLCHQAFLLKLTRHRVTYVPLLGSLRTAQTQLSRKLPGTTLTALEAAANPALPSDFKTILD
# test name: Telomerase inhibition, primer extension assay in HeLa cell extract
# Assay type: biochemical
# condition notes: Table 15; concentration fixed at 25 μM; read-out: % Inhibition of telomerase
experimental readout: inhibition at 25 µM (%)
Give a bare numeral; the unit % is implied.

compound="CCC1=C(C)c2cc3[nH]c(cc4nc(cc5[nH]c(cc1n2)c(C)c5CC)C(C)=C4CCC(=O)O)c(CCC(=O)O)c3C [Compound H15]" experimental_readout="inhibition at 25 µM" measured_value=6
compound="O=C(O)CCC1=C(CC(=O)O)c2cc3[nH]c(cc4nc(cc5[nH]c(cc1n2)c(CCC(=O)O)c5CC(=O)O)C(CC(=O)O)=C4CCC(=O)O)c(CCC(=O)O)c3CC(=O)O [Compound H24]" experimental_readout="inhibition at 25 µM" measured_value=4

Continue with the compound presented below.
Asked: inhibition at 25 µM lookup needed for CCOC(=O)CCc1c(C)c2cc3nc(cc4[nH]c(cc5nc(cc1[nH]2)C(C)=C5CC)c(C)c4CC)C(C)=C3C(=O)OCC [Compound H25] , thanks.
Given back: 18
